Molecular target: IRF8 C306 (Q02556) (Homo sapiens)
Sequence (Q02556 1-426): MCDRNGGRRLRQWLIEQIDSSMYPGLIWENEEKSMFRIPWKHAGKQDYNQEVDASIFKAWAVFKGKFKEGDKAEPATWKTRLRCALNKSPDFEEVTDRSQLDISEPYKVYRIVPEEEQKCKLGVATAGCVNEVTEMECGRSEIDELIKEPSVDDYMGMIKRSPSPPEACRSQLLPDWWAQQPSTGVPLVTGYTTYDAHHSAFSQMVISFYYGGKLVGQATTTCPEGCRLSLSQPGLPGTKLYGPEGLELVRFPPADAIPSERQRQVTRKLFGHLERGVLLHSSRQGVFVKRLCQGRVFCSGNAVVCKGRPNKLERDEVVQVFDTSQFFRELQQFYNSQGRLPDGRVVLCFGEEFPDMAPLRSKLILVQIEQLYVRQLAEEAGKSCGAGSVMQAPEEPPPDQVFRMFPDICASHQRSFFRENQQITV
Assay: Competitive isoTOP-ABPP, cell lysates
Type: binding
Details: 500 μm, in-vitro_ramos
Attribute Measured: isoTOP-ABPP reactivity ratio, Q02556_C306

1) C=CC(=O)Nc1cc(C)c(Br)cc1C ... 0.9
2) Cc1ccc(C=C(C#N)C(=O)NCCN2CCOCC2)cc1 ... 1.4
3) CCN(CC)c1ccc(S(N)(=O)=O)cc1NC(=O)CCl ... 2.0
4) O=C(CCl)Nc1ccccc1C1CCCCCC1 ... 1.2
